assay: Toxicity against african green monkey COS7 cells; format: cell-based, COS-7; conditions: chlorocebus aethiops, cos-7; read-out: LC50 (the source's name)

| Record Smiles | Measurement Units | CC50 |
| --- | --- | --- |
| NCC[C@H](O)C(=O)N[C@@H]1C[C@H](N)[C@@H](O[C@H]2O[C@H](CO)[C@@H](O)[C@H](O)[C@H]2N)[C@H](O[C@@H]2O[C@H](CN)[C@@H](O)[C@H]2O)[C@H]1O | mM | 9.3 |

====

Below, each entry is listed alongside its reported CC50.
experiment: Toxicity against MDCK cells; format: cell-based, Canis lupus familiaris; settings: dog, MDCK cells; read-out: LC50 (the source's name)

| Record Smiles | Measurement Units | CC50 |
| --- | --- | --- |
| NC[C@@H]1O[C@H](O[C@H]2[C@@H](O)[C@H](O[C@@H]3[C@@H](O)[C@H](N)C[C@H](N)[C@H]3O[C@H]3O[C@H](CO)[C@@H](O)[C@H](O)[C@H]3N)O[C@@H]2CO)[C@H](N)[C@@H](O)[C@@H]1O | mM | 1.5 |
| NC[C@H]1O[C@@H](O[C@@H]2[C@@H](O)[C@H](N)C[C@H](N)[C@H]2O[C@H]2O[C@H](CO)[C@@H](O)[C@H](O)[C@H]2N)[C@H](O)[C@@H]1O | mM | 11.5 |

====

test system: MDCK; experiment: Toxicity against MDCK cells; assay type: cell-based, Canis lupus familiaris; details: dog, mdck; read-out: LC50 (the source's name)

| Record Smiles | CC50 / mM |
| --- | --- |
| NCC[C@H](O)C(=O)N[C@@H]1C[C@H](N)[C@@H](O[C@H]2O[C@H](CO)[C@@H](O)[C@H](O)[C@H]2N)[C@H](O[C@@H]2O[C@H](CN)[C@@H](O)[C@H]2O)[C@H]1O | 3.3 |

====

experiment: Toxicity against african green monkey COS7 cells; type: cell-based, COS-7; settings: chlorocebus aethiops, cos-7; read-out: LC50 (the source's name)
Observation Type: CC50

| Query Sequence | Reported Result |
| --- | --- |
| GENTAMICIN | 750 µM |
